biological target: MEK5 PB1 domain binding to MEKK2 (MAP3K2) mutant PB1, human; assay: mutant MEKK2 PB1-MEK5 interaction blockers – biochemical, bead multiplex flow cytometry, dose response (AID 1895); conditions: Bead-based multiplex flow cytometry
The source made the active and inactive calls. The rule behind the calls is not given here.
Can you answer with just one of these options? active, inactive

Sample answers from the record:
1. CCC(=C/c1sc2ccc3ccccc3c2[n+]1C)/C=C1\Sc2ccc3ccccc3c2N1C : inactive
2. Cc1cc2ccccc2n1CCNC(=O)c1cccs1 : inactive
3. CCOC(=O)C1=C(c2ccccc2)NC(N)=NC1c1ccc(OCc2ccc(Cl)cc2)c(OC)c1 (stereo not given) : active
4. CCOc1cccc2sc(N(CCCN(C)C)C(=O)c3ccc(S(=O)(=O)N4CCc5ccccc5C4)cc3)nc12 : active
5. CCCCCCCCCCOC(=O)Cn1c(COc2ccc(OC)cc2)[n+](C)c2ccccc21 : inactive

# input Dear all, I need the recorded test outcome for Cc1nc(N)sc1-c1csc(Nc2ncccn2)n1 , thank you.
# output inactive

# input Dear all, I need the recorded test outcome for CCN(CC)CCOC(=O)c1ccc(N/C=C(/C#N)c2nc(-c3cc4ccccc4oc3=O)cs2)cc1 , thank you.
# output active

# input Dear all, I need the recorded test outcome for CCN(CC)CCOC(=O)c1ccc(N/C=C(/C#N)c2nc(-c3cccc(OC)c3)cs2)cc1 , thank you.
# output inactive

# input Dear all, I need the recorded test outcome for CN1C(=O)/C(=C\c2ccc(-c3ccccc3)o2)SC1=S , thank you.
# output inactive

# input Dear all, I need the recorded test outcome for CC[C@@H](C)[C@H](CNC)NC[C@@H](Cc1cccc2ccccc12)NCCc1cccc(C(F)(F)F)c1 , thank you.
# output inactive

###

target: MEK5 PB1 domain binding to MEKK2 (MAP3K2) mutant PB1, human; assay: mutant MEKK2 PB1-MEK5 interaction blockers – biochemical, bead multiplex flow cytometry, dose response (AID 1895); conditions: Bead-based multiplex flow cytometry
Activity calls are given as the source filed them. How the calls were made is not given here.
Can you answer with just one of these options? T = active, F = inactive

Sample answers from the record:
1. Nc1ccc(N)c(C(=O)O)c1 : F
2. COc1ccc2nc3cc(Cl)ccc3c(Nc3cc(C(C)C)c(O)cc3C)c2c1 : T
3. CNC(=O)C(=O)Nc1c(C)cc(C)cc1C : F
4. CCCCCCCCCCOC(=O)Cn1c(COc2ccc(C)cc2)[n+](C)c2ccccc21 : T

# input Dear all, I need the recorded test outcome for CCN(CC)CCOC(=O)c1ccc(N/C=C(/C#N)c2nc(-c3ccc4c(c3)OCO4)cs2)cc1 , thank you.
# output F

# input Dear all, I need the recorded test outcome for CCN1/C(=C\c2ccc3cc(C)ccc3[n+]2CC)Sc2cc(C)c(C)cc21 , thank you.
# output F

# input Dear all, I need the recorded test outcome for CCn1cc(C(=O)O)c(=O)c2cc(F)c(N3CCN(C(=S)NC(=O)c4ccc(Br)cc4)CC3)cc21 , thank you.
# output F

# input Dear all, I need the recorded test outcome for COc1ccc(Cn2c(SCc3ccc(C)cc3)nc3cc(OC)c(OC)cc3c2=N)cc1Cl , thank you.
# output T

# input Dear all, I need the recorded test outcome for CN(C)CCCn1c(SCC(=O)Nc2nc(-c3cccc(Br)c3)cs2)nc2ccccc2c1=O , thank you.
# output F

# input Dear all, I need the recorded test outcome for CCOc1ccc(C2=C/C(=C/c3cccnc3)C(=O)O2)cc1 , thank you.
# output F

###

molecular target: MEK5 PB1 domain binding to MEKK2 (MAP3K2) mutant PB1, human; test: mutant MEKK2 PB1-MEK5 interaction blockers – biochemical, bead multiplex flow cytometry, dose response (AID 1895); details: Bead-based multiplex flow cytometry
Activity calls are given as the source filed them. No rule for the calls is given here.
Can you answer with just one of these options? active, inactive

Sample answers from the record:
1. N=C(N)SCc1cn(-c2ccccc2)nc1-c1ccc(Br)cc1 : active
2. C#CCOCCOCCOCCNc1nc(N2CCN(C(=O)[C@H]([C@@H](C)CC)n3cc([C@@H](N)Cc4ccc(O)cc4)nn3)CC2)nc(N2CCN(C(=O)[C@H](Cc3cc4ccccc4[nH]3)n3cc([C@@H](N)C(C)CC)nn3)CC2)n1 (stereo partly specified) : active
3. COc1ccc(N2CC(C(=O)Nc3nnc(SCc4ccccn4)s3)CC2=O)cc1 (stereo unspecified) : inactive
4. CN1C(=CC=C2C=C(I)C(=O)C(I)=C2)C(C)(C)c2ccccc21 : active
5. COC(=O)c1c(C)oc(C)c1S(=O)(=O)N(Cc1ccccc1)C(C)C : inactive

API: the following record is the query input.
# input Dear all, I need the recorded test outcome for C#CCOCCOCCOCCNc1nc(N2CCN(C(=O)[C@H]([C@@H](C)CC)n3cc([C@@H](N)CO)nn3)CC2)nc(N2CCN(C(=O)[C@H](Cc3cc4ccccc4[nH]3)n3cc([C@@H](N)Cc4ccc(O)cc4)nn3)CC2)n1 , thank you.
# output inactive

###

molecular target: MEK5 PB1 domain binding to MEKK2 (MAP3K2) mutant PB1, human; test: mutant MEKK2 PB1-MEK5 interaction blockers – biochemical, bead multiplex flow cytometry, dose response (AID 1895); details: Bead-based multiplex flow cytometry
The source made the active and inactive calls. No rule for the calls is given here.
Can you answer with just one of these options? YES for active, NO for inactive

Sample answers from the record:
1. C=CC#CC[N+]1(CC#Cc2ccccc2)CCOCC1 : NO
2. C#CCOCCOCCOCCNc1nc(N2CCN(C(=O)[C@H](Cc3cc4ccccc4[nH]3)n3cc([C@@H](N)C(C)CC)nn3)CC2)nc(N2CCN(C(=O)[C@H](CCCCN)n3cc([C@@H](N)CC(C)C)nn3)CC2)n1 (stereo partly specified) : YES
3. COCCNC(=O)CN(c1cc(Cl)ccc1OC)S(=O)(=O)c1ccc(C)c([N+](=O)[O-])c1 : NO
4. Cc1ccc(CN2CCSc3ccc(C(=O)NC4CCN(Cc5ccccc5)CC4)cc32)cc1 : YES
5. C=CCN1C(=O)/C(=C/c2ccc(-c3ccc(F)cc3)o2)SC1=S : NO

API: the following record is the query input.
# input Dear all, I need the recorded test outcome for CCCOc1ccc2c(c1)C(=NN=C(N)N)c1cc(OCCC)ccc1-2 , thank you.
# output YES

###

Recorded measurements of EC50, one per entry
molecular target: MEK5 PB1 domain binding to MEKK2 (MAP3K2) mutant PB1, human; assay: mutant MEKK2 PB1-MEK5 interaction blockers – biochemical, bead multiplex flow cytometry, dose response (AID 1895); details: Bead-based multiplex flow cytometry
Active and inactive are the calls of the source. No rule for the calls is given here.

1. CCN1CCN(CCNC(=O)c2ccc(/C=C3/Sc4ccccc4N(Cc4cccc(Cl)c4)C3=O)cc2)CC1 : 6.53 µM
2. C#CCOCCOCCOCCNc1nc(N2CCN(C(=O)C(Cc3cc4ccccc4[nH]3)n3cc(C(N)C(C)CC)nn3)CC2)nc(N2CCN(C(=O)C(Cc3cc4ccccc4[nH]3)n3cc(C(N)C(C)CC)nn3)CC2)n1 (stereo not given) : 4.1 µM
3. CCOC(=O)c1c(C)n(-c2ccc(C)cc2)c2ccc(OCC(O)CN3CCN(C)CC3)cc12 (stereo not given) : > 30 µM (inactive)

The recorded EC50 for entry C#CCOCCOCCOCCNc1nc(N2CCN(C(=O)[C@H](Cc3cc4ccccc4[nH]3)n3cc([C@@H](N)C(C)CC)nn3)CC2)nc(N2CCN(C(=O)[C@H](Cc3cc4ccccc4[nH]3)n3cc([C@@H](N)CC(C)C)nn3)CC2)n1 (stereo not given in full) equals 3.62 µM

The recorded EC50 for entry O=C(c1cc(COc2c(F)cccc2F)on1)N1C[C@H]2CC[C@H]1C2 equals > 30 µM (inactive)

The recorded EC50 for entry CCCCCCCCCCOC(=O)Cn1c(COc2cccc(OC)c2)[n+](C)c2ccccc21 equals 21.5 µM

The recorded EC50 for entry c1ccc(CNc2nc(NCc3ccccc3)c3ccccc3n2)cc1 equals > 30 µM (inactive)

The recorded EC50 for entry COc1ccc(C(CCNCc2ccc(OC(C)C)cc2)c2ccccc2OC)cc1 (stereo not given) equals > 30 µM (inactive)

The recorded EC50 for entry COc1ccc(C2NCCc3c2[nH]c2ccccc32)cc1CN1CCc2cc(OC)c(OC)cc2C1C (stereo not given) equals 13.2 µM

The recorded EC50 for entry COc1ccc2[nH]c3c(C)c4ccncc4c(C)c3c2c1 equals > 30 µM (inactive)

The recorded EC50 for entry CCOC(=O)N1CCN(c2c(N3CCN(c4ccccc4F)CC3)c(=O)c2=O)CC1 equals > 30 µM (inactive)

###

target: MEK5 PB1 domain binding to MEKK2 (MAP3K2) mutant PB1, human; assay: mutant MEKK2 PB1-MEK5 interaction blockers – biochemical, bead multiplex flow cytometry, dose response (AID 1895); details: Bead-based multiplex flow cytometry
Calls of active or inactive are those of the source. How the calls were made is not given here.
Can you answer with just one of these options? label 1 for active, label 0 for inactive

Sample answers from the record:
1) Cc1ccc(-n2cc(CNCCCn3ccnc3C)c(-c3ccc(F)cc3)n2)cc1 : label 0
2) CCCCCCCCCCOC(=O)Cn1c(COc2ccccc2OC)[n+](C)c2ccccc21 : label 0

# input Dear all, I need the recorded test outcome for COC(=O)C1=C(C)N(Cc2ccccc2)C(=NCc2cccc(C(F)(F)F)c2)N[C@H]1c1cccc(F)c1 , thank you.
# output label 1

# input Dear all, I need the recorded test outcome for C#CCOCCOCCOCCNc1nc(N2CCN(C(=O)C(Cc3ccc(O)cc3)n3cc(C(N)CC(C)C)nn3)CC2)nc(N2CCN(C(=O)C(Cc3cc4ccccc4[nH]3)n3cc(C(N)C(C)CC)nn3)CC2)n1 (centres undefined) , thank you.
# output label 0
